Reference for the values: patent US9828374B2

molecular target: mouse TAAR1 (Mus musculus (Mouse), UniProt Q923Y8); assay: Radioligand binding assay on mouse TAAR1; details: mouse TAAR1, HEK-293 membranes; first value of the mouse/rat pair
Sequence (Q923Y8 whole entry): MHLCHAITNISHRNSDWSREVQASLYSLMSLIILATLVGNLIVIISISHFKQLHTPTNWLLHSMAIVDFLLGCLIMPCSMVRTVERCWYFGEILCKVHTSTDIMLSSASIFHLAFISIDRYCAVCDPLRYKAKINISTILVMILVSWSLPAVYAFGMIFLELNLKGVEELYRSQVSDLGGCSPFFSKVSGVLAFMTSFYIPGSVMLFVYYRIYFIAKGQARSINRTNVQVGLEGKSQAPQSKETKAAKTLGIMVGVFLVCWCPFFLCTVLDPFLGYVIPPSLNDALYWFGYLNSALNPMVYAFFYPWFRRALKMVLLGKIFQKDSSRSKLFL
compounds and their reported Ki
readout.label: Ki (µM)

chemical.structure: O=C(NCc1cccc(C(F)(F)F)c1)c1ccc2c(c1)CCN1CCNC[C@@H]21
system: mouse TAAR1 (Mus musculus (Mouse), UniProt Q923Y8)
uom: µM
meas.value: 0.0301
//
chemical.structure: CC(C)c1cc(C(=O)Nc2ccc3c(c2)CCN2CCNC[C@@H]32)n(C)n1
system: mouse TAAR1 (Mus musculus (Mouse), UniProt Q923Y8)
uom: µM
meas.value: 1.07
//
chemical.structure: c1ccc2c(c1)CCN1CCNC[C@@H]21
system: mouse TAAR1 (Mus musculus (Mouse), UniProt Q923Y8)
uom: µM
meas.value: 0.0605

###

Catalogue of Ki readings, one per entry.
target: rat TAAR1 (Rattus norvegicus (Rat), UniProt Q923Y9); test: Radioligand binding assay on rat TAAR1; settings: rat TAAR1, HEK-293 membranes; second value of the mouse/rat pair
Sequence (Q923Y9 whole entry): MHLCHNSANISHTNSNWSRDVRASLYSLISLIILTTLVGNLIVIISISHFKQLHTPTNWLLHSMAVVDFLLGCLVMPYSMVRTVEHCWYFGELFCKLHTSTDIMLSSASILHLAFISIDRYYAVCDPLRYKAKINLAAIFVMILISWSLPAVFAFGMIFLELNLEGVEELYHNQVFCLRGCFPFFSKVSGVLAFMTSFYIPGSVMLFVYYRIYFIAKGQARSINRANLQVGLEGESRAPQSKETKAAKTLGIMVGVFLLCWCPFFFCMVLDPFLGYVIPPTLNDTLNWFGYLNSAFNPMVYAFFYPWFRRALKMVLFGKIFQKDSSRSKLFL
readout.label: Ki (µM)

molecule: Nc1ccc2c(c1)CCN1CCNC[C@@H]21 [Example 47]
system: rat TAAR1 (Rattus norvegicus (Rat), UniProt Q923Y9)
readout.label: Ki
limit.sign: >
meas.value: 1.5
//
molecule: CCc1n[nH]c(C(=O)Nc2ccc3c(c2)CCN2CCNC[C@@H]32)c1C [Example 41]
system: rat TAAR1 (Rattus norvegicus (Rat), UniProt Q923Y9)
readout.label: Ki
limit.sign: =
meas.value: 0.288
//
molecule: Cc1ccc2c(c1)CCN1CCNC[C@@H]21 [Example 28]
system: rat TAAR1 (Rattus norvegicus (Rat), UniProt Q923Y9)
readout.label: Ki
limit.sign: =
meas.value: 0.421
//
molecule: O=C(Nc1ccc2c(c1)CCN1CCNC[C@@H]21)c1ccnc(C(F)(F)F)c1 [Example 1]
system: rat TAAR1 (Rattus norvegicus (Rat), UniProt Q923Y9)
readout.label: Ki
limit.sign: =
meas.value: 0.199
//
molecule: FC(F)(F)c1nc(Cl)cc(Nc2ccc3c(c2)CCN2CCNC[C@@H]32)n1 [Example 21]
system: rat TAAR1 (Rattus norvegicus (Rat), UniProt Q923Y9)
readout.label: Ki
limit.sign: =
meas.value: 0.0134
//
molecule: O=C(Nc1ccc2c(c1)CCN1CCNC[C@H]21)c1ccnc(C(F)(F)F)c1 [Example 9]
system: rat TAAR1 (Rattus norvegicus (Rat), UniProt Q923Y9)
readout.label: Ki
limit.sign: =
meas.value: 0.0142
